# System: M14
# assay procedure: NCI tumour cell line growth inhibition, 48 h
The source made the active and inactive calls. Cut-off read from the data, not from the text of the source: active = GI50 up to about 1.1 µM and inactive = higher.
assay readout: GI50

Assay M14, sample "Cn1c(=O)c2ccc(-c3ccc(Br)cc3)nc2n(C)c1=O" , GI50 read: > 100 µM (inactive)

Assay M14, sample "COc1ccc(/C=C2/CCS(=O)(=O)c3ccc(C)cc3C2=O)cc1OC" , GI50 read: 17.2 µM (inactive)

Assay M14, sample "CS(=O)(=O)c1nc(N)nc2nc[nH]c12" , GI50 read: > 100 µM (inactive)

Assay M14, sample C1=C2C3=[N+](CCCC3)CC2Cc2sccc21 (stereo unspecified) , GI50 read: > 100 µM (inactive)

Assay M14, sample CCOC(=O)C1Cc2[nH]c3ccccc3c2C(C)C1C (stereo unspecified) , GI50 read: 16.7 µM (inactive)

Assay M14, sample "O=[PH](O)c1ccsc1" , GI50 read: > 100 µM (inactive)

---

# System: UO-31
# assay procedure: NCI tumour cell line growth inhibition, 48 h
The source made the active and inactive calls. Cut-off read from the data, not from the text of the source: active = GI50 up to about 1.1 µM and inactive = higher.
assay readout: GI50

Entry under test: "c1ccc2c(c1)CCc1[nH]c3c(c1-2)-c1ccccc1CC3" . Its GI50 was > 100 µM (inactive)

Entry under test: CN(C)CC(=O)N1CCc2c([nH]c3ccccc23)C1c1cccnc1 (configuration not stated) . Its GI50 was 22.5 µM (inactive)

Entry under test: CCOC(=O)COc1c(OC)cc(C2C3=C(COC3=O)Oc3cc4c(cc32)OCO4)cc1OC (configuration not stated) . Its GI50 was 13.4 µM (inactive)

Entry under test: "CCOC(=O)c1cccc(/N=N/Nc2cccc(C(=O)OCC)c2)c1" . Its GI50 was 17.7 µM (inactive)

Entry under test: "CCCCCCCCCCCCCCCCc1c(C(=O)OC)[nH]c(=S)[nH]c1=O" . Its GI50 was > 50 µM (inactive)

Entry under test: "CCCN(CCC)C(=S)Sc1nc(C)nc(N2CCN(c3nc(C)nc(SC(=S)N(CCC)CCC)c3[N+](=O)[O-])CC2)c1[N+](=O)[O-]" . Its GI50 was 17.9 µM (inactive)

Entry under test: "COc1cc2oc(-c3ccc4c(c3)OCO4)c(OC)c(=O)c2c(OC)c1OC" . Its GI50 was > 100 µM (inactive)

Entry under test: "CCCCCCCCCCCCCCCCOP(=O)(O)Oc1ccc(/C=C\c2ccc(OP(=O)(O)OCCCCCCCCCCCCCCCC)cc2)cc1" . Its GI50 was > 100 µM (inactive)

Entry under test: COC(=O)C(=O)C(C(=O)C(=O)Nc1ccc([N+](=O)[O-])cc1C#N)c1nc2ccc([N+](=O)[O-])cc2nc1O (configuration not stated) . Its GI50 was > 100 µM (inactive)

Entry under test: "COc1ccc(/C(Cl)=C(/c2ccc(O)cc2)c2ccc(OCCN(C)C)cc2)cc1" . Its GI50 was 7.03 µM (inactive)

Entry under test: COc1cc2c(cc1OC)C1[C@@H](c3ccccc3)OCN1CC2 (some centres not stated) . Its GI50 was > 100 µM (inactive)

Entry under test: "CC(=O)OC(C)(C)/N=N/c1ccc(Br)cc1" . Its GI50 was 0.425 µM (active)

Entry under test: "COc1ccc2nc3cc(Cl)ccc3c(NCCCN(C)CCCNc3ccc4ncn5c6ccccc6c(=O)c3c45)c2c1" . Its GI50 was 0.488 µM (active)

Entry under test: "Cc1cc2nc(N3C(=O)/C(=C/Cc4ccco4)N=C3c3ccccc3)sc2cc1C" . Its GI50 was 26.6 µM (inactive)

Entry under test: "S=C1CSc2c(cnc3ccccc23)N1" . Its GI50 was 65.6 µM (inactive)

Entry under test: "O=C1NC(=S)NC(=O)C1C(c1ccc(Cl)cc1)C1C(=O)NC(=S)NC1=O.c1ccncc1" . Its GI50 was > 100 µM (inactive)

Entry under test: "C(=N\c1nc2cc3sc(/N=C/c4ccccc4)nc3cc2s1)/c1ccccc1" . Its GI50 was 62.5 µM (inactive)

Entry under test: "Oc1nnnc2c1sc1ncccc12" . Its GI50 was 84.5 µM (inactive)

Entry under test: "O=C(c1ccccc1)c1nnc(C(=O)c2ccccc2)nn1" . Its GI50 was > 344 µM (inactive)

Entry under test: "C/C(=N/NC(=S)Nc1ccccc1Cl)c1cccc(/C(C)=N\NC(=S)Nc2ccccc2Cl)n1" . Its GI50 was 44 µM (inactive)

Entry under test: "CN1CCCN2CCN(C)CCN(CC1)CC2" . Its GI50 was > 100 µM (inactive)

Entry under test: Cc1cc(S(=O)(=O)NC2=Nc3ccccc3C(c3ccccc3)N2)c(S)cc1Cl (configuration not stated) . Its GI50 was 24.9 µM (inactive)

Entry under test: "Cn1c(=O)c2c(nc3sc4nc5ccccc5nc4n32)n(C)c1=O" . Its GI50 was > 100 µM (inactive)

Entry under test: "N/N=C1/C2CN3CCN(C2)CC1(c1ccc([N+](=O)[O-])cc1)C3" . Its GI50 was > 100 µM (inactive)

Entry under test: C1=C2C3=[N+](CCCC3)CC2Cc2sccc21 (configuration not stated) . Its GI50 was > 100 µM (inactive)

Entry under test: COC(=O)C(CCCCCCCC(C(=O)OC)C1=Nc2nnc(N)n2C1=O)C1=Nc2nnc(N)n2C1=O (configuration not stated) . Its GI50 was > 100 µM (inactive)

Entry under test: [N-]=[N+]=NC(CCl)c1cn([C@H]2C[C@H](O)[C@@H](CO)O2)c(=O)[nH]c1=O (some centres not stated) . Its GI50 was > 100 µM (inactive)

Entry under test: "CCOc1cc(/C=C/C=C/C=C/c2ccc(N(C)C)cc2)[s+]c2ccccc12" . Its GI50 was 4.58 µM (inactive)

Entry under test: "N#Cc1ccc(Sc2ccccc2)cc1C#N" . Its GI50 was > 100 µM (inactive)

Entry under test: "[N-]=[N+]=Nc1ccc2c(c1)Sc1ccccc1N2CCCCN1CCN(C(=O)CCNC(=O)Cc2ccc(C(=O)c3ccccc3)cc2)CC1" . Its GI50 was 5.32 µM (inactive)

Entry under test: N#CC(C(=O)CCC(=O)Nc1ccc(Cl)c(Cl)c1)c1ccccc1 (configuration not stated) . Its GI50 was > 100 µM (inactive)

Entry under test: "NNC(=O)c1ccccc1NC(=O)/C(=C/c1ccccc1)NC(=O)c1ccccc1" . Its GI50 was 65.3 µM (inactive)
